Test system: human SMAD7 mRNA
experimentalDetails: Antisense inhibition of human SMAD7 mRNA expression in Hep3B cells by 5-10-5 MOE gapmers, single concentration, electroporation, RT-PCR (Example 1, Study 1 and 2)
Type: cell-based
conditionParameters: electroporation, 5,000 nM, approximately 24 hours, relative to untreated control cells, gapmers targeting SEQ ID NO: 1 and 2
Strand notation (5' to 3'): a small letter for the sugar, then the base; units joined by * are phosphorothioate-linked, units joined directly phosphodiester-linked; [ ] holds rarer units or linkages, { } end groups; capitals alone tell only the bases. e = 2'-O-(2-methoxyethyl) (MOE); [5mC] = 5-methylcytosine; d = 2'-deoxy (DNA)
quantityKind: % inhibition of SMAD7 mRNA expression (%)
Numbers only, in %.

- substance: "771787 (antisense eA*eA*eG*eA*eA*dG*dA*dA*dG*dG*dA*dG*d[5mC]*dT*d[5mC]*eA*eA*eA*e[5mC]*eT) [compound 771787]"
  unitDescriptor: "%"
  % inhibition of SMAD7 mRNA expression: 0

Please look at the items below and tell me % inhibition of SMAD7 mRNA expression for each one, in order.
1. 771358 (antisense eA*eG*eT*eT*eA*dA*dT*d[5mC]*dA*dT*dT*dA*d[5mC]*dT*d[5mC]*eG*eA*eG*eT*e[5mC]) [compound 771358]
2. 771428 (eT*eG*eG*e[5mC]*eA*d[5mC]*d[5mC]*dT*d[5mC]*dG*d[5mC]*dA*d[5mC]*d[5mC]*dG*e[5mC]*e[5mC]*eT*eT*eG; antisense) [compound 771428]
3. 771771 (antisense e[5mC]*eA*eG*e[5mC]*eT*d[5mC]*d[5mC]*dT*dA*d[5mC]*dT*dG*dT*dT*dG*eG*e[5mC]*eA*eG*eT) [compound 771771]
4. 771390 (antisense e[5mC]*eG*eG*e[5mC]*eT*dG*d[5mC]*d[5mC]*d[5mC]*d[5mC]*dA*d[5mC]*d[5mC]*d[5mC]*d[5mC]*eG*e[5mC]*eG*e[5mC]*eG) [compound 771390]

(A)
1: 53; 2: 0; 3: 63; 4: 32

====

experimentalDetails: Plasma chemistry markers after subcutaneous administration in CD-1 mice (Example 6)
Assay type: in vivo
conditionParameters: CD-1 mice plasma at day 46; 50 mg/kg subcutaneously twice a week for 7 weeks
Strand notation (5' to 3'): a small letter for the sugar, then the base; units joined by * are phosphorothioate-linked, units joined directly phosphodiester-linked; [ ] holds rarer units or linkages, { } end groups; capitals alone tell only the bases. k = constrained ethyl (cEt); [5mC] = 5-methylcytosine; d = 2'-deoxy (DNA)
I'd appreciate it if you could supply ALT values for the items below.
Answers are plain numbers, in IU/L.

The examples below pair each entry with its known result.
- substance: "798781 (CGTAAGATTCACAGCA; 3-10-3 cEt gapmer, further chemistry not given here) [compound 798781]"
  reported: 40
- substance: "829994 (GGAGGCAGGGCCGCGA; 3-10-3 cEt gapmer, further chemistry not given here) [compound 829994]"
  reported: 65
- substance: "830027 (antisense kA*kA*k[5mC]*d[5mC]*dA*dT*dT*dT*dA*dT*d[5mC]*dT*dG*kG*kT*kG) [compound 830027]"
  reported: 40
- substance: "799144 (antisense kT*kT*kG*dG*dG*dT*dT*dA*dT*dG*dA*d[5mC]*dG*kG*kA*k[5mC]) [compound 799144]"
  reported: 253
- substance: "830121 (AGAATCAAGCCCTGGC; 3-10-3 cEt gapmer, further chemistry not given here) [compound 830121]"
  reported: 198

Please look at the items below and tell me ALT for each one, in order.
1. 790615 (CCAATGAGAATGCTTC; 3-10-3 cEt gapmer, further chemistry not given here) [compound 790615]
2. 830025 (antisense TTTGTAAATCGAAAGC; 3-10-3 cEt gapmer, further chemistry not given here) [compound 830025]

(A)
1: 65; 2: 208
